molecular target: BRD2(1, 2) (Homo sapiens (Human), UniProt P25440); experiment: AlphaScreen binding assay, BRD2 (D1+D2)
Sequence (P25440 65-459): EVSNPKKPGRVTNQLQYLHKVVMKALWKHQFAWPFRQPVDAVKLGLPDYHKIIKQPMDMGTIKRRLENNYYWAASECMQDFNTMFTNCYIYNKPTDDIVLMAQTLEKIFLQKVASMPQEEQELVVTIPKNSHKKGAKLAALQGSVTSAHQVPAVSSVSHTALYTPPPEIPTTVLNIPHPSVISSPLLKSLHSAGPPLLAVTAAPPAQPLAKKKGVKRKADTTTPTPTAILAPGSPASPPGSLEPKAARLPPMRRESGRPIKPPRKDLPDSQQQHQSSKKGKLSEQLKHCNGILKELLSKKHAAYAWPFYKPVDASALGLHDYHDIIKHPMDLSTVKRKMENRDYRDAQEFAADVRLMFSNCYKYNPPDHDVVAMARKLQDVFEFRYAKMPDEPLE
Entries and their IC50 values follow.
Provide the reading as a plain figure in nM.

smiles_str	assay_system	IC50, nM
CCOCc1nnc(C[C@@H]2N=C(c3ccc(Cl)cc3)c3c(sc(C)c3C)-n3c(C)nnc32)o1	BRD2(1, 2) (Homo sapiens (Human), UniProt P25440)	15
CCc1nnc(C[C@@H]2N=C(c3ccc(Cl)cc3)c3c(sc(C)c3C)-n3c(C)nnc32)o1	BRD2(1, 2) (Homo sapiens (Human), UniProt P25440)	10.8
Cc1sc2c(c1C)C(c1ccc(Cl)cc1)=N[C@@H](Cc1nnc(C3CC3)o1)c1nnc(C)n1-2	BRD2(1, 2) (Homo sapiens (Human), UniProt P25440)	10.1

Please turn your attention to the following entry.
The reported value for "Cc1sc2c(c1C)C(c1ccc(Cl)cc1)=N[C@@H](Cc1nnc(C(C)C)o1)c1nnc(C)n1-2" in terms of IC50 is 8.3

====

biological target: UniProt Q15059; assay: AlphaScreen binding assay, BRD3 (D1+D2)
Sequence (Q15059 29-417): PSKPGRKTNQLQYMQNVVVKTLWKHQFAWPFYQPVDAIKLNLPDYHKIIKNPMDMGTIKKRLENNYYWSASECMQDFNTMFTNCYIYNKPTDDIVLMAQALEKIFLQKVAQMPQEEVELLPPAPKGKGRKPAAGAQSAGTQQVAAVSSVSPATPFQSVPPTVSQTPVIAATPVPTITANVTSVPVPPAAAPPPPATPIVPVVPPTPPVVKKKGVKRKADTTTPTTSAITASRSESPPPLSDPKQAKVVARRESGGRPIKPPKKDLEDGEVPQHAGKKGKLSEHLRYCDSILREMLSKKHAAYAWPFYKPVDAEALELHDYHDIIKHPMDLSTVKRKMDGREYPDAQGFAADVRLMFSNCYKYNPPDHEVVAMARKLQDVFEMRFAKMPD
measured_metric: IC50 (µM)
Note: unit µM is implicit; provide only the numeric part.

Guide cases for IC50, answers given:
compound	assay_system	IC50 (µM)
Cc1sc2c(c1C)C(c1ccc(Cl)cc1)=N[C@@H](Cc1nnc(C(C)C)o1)c1nnc(C)n1-2 [Compound 19]	UniProt Q15059	0.017
CCOCc1nnc(C[C@@H]2N=C(c3ccc(Cl)cc3)c3c(sc(C)c3C)-n3c(C)nnc32)o1 [Compound 6]	UniProt Q15059	0.02
Cc1sc2c(c1C)C(c1ccc(Cl)cc1)=N[C@@H](Cc1nnc(C3CC3)o1)c1nnc(C)n1-2 [Compound 20]	UniProt Q15059	0.02

// compound CCc1nnc(C[C@@H]2N=C(c3ccc(Cl)cc3)c3c(sc(C)c3C)-n3c(C)nnc32)o1 [Compound 22] , assay UniProt Q15059, IC50 value: 0.021

Attribution: patent US11572371B2
